Target: non-BET bromodomain protein CBP (Homo sapiens)
Sequence (Q92793 1085-1192 limits assumed): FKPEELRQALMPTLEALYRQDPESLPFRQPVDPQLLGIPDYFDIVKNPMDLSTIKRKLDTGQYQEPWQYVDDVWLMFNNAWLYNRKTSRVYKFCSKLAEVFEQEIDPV
Assay: TR-FRET binding assay, CBP
QUANTITY MEASURED: IC50

Record O=C(Nc1ccc(C(F)(F)F)cc1)Nc1ccc(S(=O)(=O)N2CCCC2C(=O)Nc2ccccc2)cc1 (stereo in doubt) has non-BET bromodomain protein CBP (Homo sapiens) IC50 equal to > 10 µM

Data provenance: patent US10975059B2
